Kindly supply the reported GHS category values for the records listed here.
protocol details: GHS categories as the set defines them, by LD50: 1 up to 5, 2 up to 50, 3 up to 300, 4 up to 2000, 5 above 2000 mg/kg
details: rat; in vivo; po
# answer = number (no unit)

Request: Param item = CCCC(=O)OC ; retrieve measured GHS category.
Response: 5

Request: Check CNC(=O)/C(=N/OC)c1ccccc1COc1cc(C)ccc1C too.
Response: 5

Request: Check CC(=O)OCC1=C(C(=O)O)N2C(=O)[C@@H](N)[C@H]2SC1 too.
Response: 5

Request: Check CCCCC/C=C\CCC(CCCCCCCC(=O)O)C(CCCCCCCC)CCCCCCCCC(=O)O (stereo not drawn) too.
Response: 5

Request: Check CC/C=C\CCC1(C)CCC(=O)O1 (stereo not drawn) too.
Response: 5

Request: Check CC(=O)N(C)C(=O)Oc1cccc2c1OC1(CCCCC1)O2 too.
Response: 4

Request: Check Nc1cc(Br)c(O)c2c(O)c3c(N)cc(Br)c(O)c3c(O)c12 too.
Response: 5

Request: Check O=C1C=CC(=O)N1c1ccc(Cc2ccc(N3C(=O)C=CC3=O)cc2)cc1 too.
Response: 5

Request: Check O=c1n(CCO)c(=O)n(CCO)c(=O)n1CCO too.
Response: 5

Request: Check CCC[C@H]1CCO[C@@H](C)S1 too.
Response: 5

Request: Check Cc1ccn2c(=O)c(C(=O)NC3CCCC3)cnc2c1 too.
Response: 3

Request: Check C[C@]12COC(=O)C[C@@H]1CC[C@@H]1[C@@H]2CC[C@@]2(C)[C@H]1CC[C@]2(C)O too.
Response: 5

Request: Check CCc1cccc(C)c1Nc1ccc(Nc2c(C)cccc2CC)c2c1C(=O)c1ccccc1C2=O too.
Response: 5

Request: Check COC(=O)CC(C)C(=O)c1ccc(NC(=O)c2ccc(OC)cc2)c([N+](=O)[O-])c1 (stereo not drawn) too.
Response: 5

Request: Check CCC(C)(Oc1ccc(Cl)cc1)C(=O)OC1CC(C)CC(C)(C)C1 (stereo not drawn) too.
Response: 5

Request: Check CCCS(=O)(=O)Nc1ccc(F)c(C(=O)c2c[nH]c3ncc(Br)cc23)c1F too.
Response: 5

Request: Check Clc1cccc(Cl)c1Nc1ccccc1 too.
Response: 5

Request: Check C=C(C)C(=O)NCCC[N+](C)(C)C too.
Response: 5

Request: Check CCC1COC(Cn2cncn2)(c2cc3cc(Cl)cc(Cl)c3o2)O1 (stereo not drawn) too.
Response: 4

Request: Check CCOC(=O)c1cnn(C)c1S(=O)(=O)NC(=O)Nc1nc(OC)cc(OC)n1 too.
Response: 5

Request: Check CCCCCCCCCCOC(C)=O too.
Response: 5

Request: Check CCOC(=O)c1ccc(NC(=O)C=C(C)C=CC=C(C)C=CC2=C(C)CCCC2(C)C)cc1 too.
Response: 5

Request: Check CSCC[C@H](NC(=O)[C@H](Cc1c[nH]c2ccccc12)NC(=O)CCNC(=O)OC(C)(C)C)C(=O)N[C@@H](CC(=O)O)C(=O)N[C@@H](Cc1ccccc1)C(N)=O too.
Response: 3

Request: Check O=C1OCCN1N=Cc1c(N2CCCCCC2)nc2ccccn2c1=O too.
Response: 4

Request: Check NC[C@H]1O[C@H](O[C@H]2[C@H](O)[C@@H](O[C@H]3O[C@H](CO)[C@@H](O)[C@H](N)[C@H]3O)[C@H](N)C[C@@H]2N)[C@H](N)C[C@@H]1O too.
Response: 5

Request: Check CCCCC(CC)COC(=O)CCCCCCCC(=O)OCC(CC)CCCC (stereo not drawn) too.
Response: 5

Request: Check COc1ccc(CCN2CCC(Nc3nc4ccccc4n3Cc3ccc(F)cc3)CC2)cc1 too.
Response: 5

Request: Check CCOC(=O)C1=C(C)NC(CCl)=C(C(=O)OCC)C1c1cccc([N+](=O)[O-])c1 (stereo not drawn) too.
Response: 4

Request: Check Cc1cccc(C)c1OP(=O)(Oc1c(C)cccc1C)Oc1c(C)cccc1C too.
Response: 5

Request: Check CC(=O)Nc1cc(NS(=O)(=O)C(F)(F)F)c(C)cc1C too.
Response: 5

Request: Check CC(O)CN(CC(C)O)C(=O)CCCCC(=O)N(CC(C)O)CC(C)O (stereo not drawn) too.
Response: 5

Request: Check CCCC(=O)OC[C@@H](OC(=O)CCC)[C@@H](OC(=O)CCC)[C@H](Cn1c2nc(=O)[nH]c(=O)c-2nc2cc(C)c(C)cc21)OC(=O)CCC too.
Response: 5

Request: Check CC(C)=CCC/C(C)=C\COC(=O)C(C)C too.
Response: 5

Request: Check Nc1ccc(C(=O)O)cc1 too.
Response: 5

Request: Check CCCCCCCCCCN(C)CCCCCCCCCC too.
Response: 4

Request: Check O=C(O)NN1C(CCCOc2ccc(F)cc2)C[C@H](O)[C@@H]2CCCC[C@H]21 (stereo partly drawn) too.
Response: 5

Request: Check O=S(=O)(O)c1cc(O)c2c(N=Nc3ccc(Nc4ccccc4)c4c(S(=O)(=O)O)cccc34)cc(S(=O)(=O)O)cc2c1 too.
Response: 5

Request: Check FC(C(F)C(F)(F)C(F)(F)F)C(F)(F)F (stereo not drawn) too.
Response: 5

Request: Check C=CC(=O)OCCN(C)S(=O)(=O)C(F)(F)C(F)(F)C(F)(F)C(F)(F)F (racemic) too.
Response: 5

Request: Check CCCCCCCCO too.
Response: 5

Request: Check CC(C)OC(=O)Nc1nc(N2CC=CCC2)cc2nc(=O)on12 too.
Response: 5

Request: Check CC1C(C)(C)C2=C(C3OCOCC3CC2)C1(C)C (stereo not drawn) too.
Response: 5

Request: Check O=c1[nH]c(=O)n([C@H]2C[C@H](O)[C@@H](CO)O2)cc1C(F)(F)F too.
Response: 5
